- studySystem: unmodified hairpin DNA
- assaySummary: EtBr fluorescence titration with unmodified hairpin DNA
- measurementContext: unmodified hairpin DNA (data not shown)
measuredEndpoint: pKd
Numbers only, as −log10 of the molar value.

query: pKd lookup needed for CC[n+]1c(-c2ccccc2)c2cc(N)ccc2c2ccc(N)cc21 [EtBr, ethidium bromide] , thanks.
result: 5.80

---

Field: LD50 of MeLex in the presence of LD10 concentration of inhibitor. Provide a value for each of the molecules that follow.
- Tested on: T98G cells
- assaySummary: Potentiation of MeLex cytotoxicity, long term
- Format: cell-based, human
- measurementContext: long term assay, MeLex alone 9.9 μM
Numbers only, in µM.

Solved entries (count: 2):
| smilesData | studySystem | numericValue |
| --- | --- | --- |
| Cc1cc(N/N=C/c2c(C)n(C)n(-c3ccccc3)c2=O)c2cc3c(cc2n1)OCO3 | T98G cells | 3.6 |
| CCn1c2ccccc2c2cc(/C=N/Nc3cc(C)nc4cc5c(cc34)OCO5)ccc21 | T98G cells | 1.6 |

Consider the additional molecule presented here.
query: Reported LD50 of MeLex in the presence of LD10 concentration of inhibitor, molecule "C/C(=N\Nc1cc(C)nc2cc3c(cc12)OCO3)c1cn(C)n(-c2ccccc2)c1=O" : ____
result: 2.0

---

- studySystem: APE-1 activity in T98G cell nuclear lysates (Homo sapiens, UniProt P27695)
- Sequence (P27695 whole entry, stated change not applied): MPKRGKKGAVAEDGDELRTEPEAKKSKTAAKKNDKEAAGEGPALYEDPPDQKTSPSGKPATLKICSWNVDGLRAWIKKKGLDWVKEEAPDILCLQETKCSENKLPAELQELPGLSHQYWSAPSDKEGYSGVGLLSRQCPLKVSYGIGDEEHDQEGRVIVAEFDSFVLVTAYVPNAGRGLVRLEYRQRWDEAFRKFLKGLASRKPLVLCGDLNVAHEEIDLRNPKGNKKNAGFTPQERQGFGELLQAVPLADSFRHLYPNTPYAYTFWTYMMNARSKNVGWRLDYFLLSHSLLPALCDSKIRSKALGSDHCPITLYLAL
- assaySummary: Molecular beacon assay with T98G cell nuclear lysates
- measurementContext: EC2nM APE-1 activity
measuredEndpoint: Ki (nM)
Answers are plain numbers, in nM.

| smilesData | studySystem | numericValue |
| --- | --- | --- |
| C/C(=N\Nc1cc(C)nc2cc3c(cc12)OCO3)c1cn(C)n(-c2ccccc2)c1=O | APE-1 activity in T98G cell nuclear lysates (Homo sapiens, UniProt P27695) | 450 |

Batch: Ki for all items listed.
1. Cc1cc(N/N=C/c2c(C)n(C)n(-c3ccccc3)c2=O)c2cc3c(cc2n1)OCO3
2. CCn1c2ccccc2c2cc(/C=N/Nc3cc(C)nc4cc5c(cc34)OCO5)ccc21

result:
[1410, 210]

query: Which Ki value belongs to "COc1cccc(/C=N/Nc2cc(C)nc3cc4c(cc23)OCO4)c1" ?
result: 240

---

- studySystem: THF modified hairpin DNA
- assaySummary: EtBr fluorescence titration with THF modified hairpin DNA
- Format: binding
- measurementContext: THF modified hairpin DNA (data not shown)
measuredEndpoint: Kd (nM)
Give bare numbers, in nM.

query: Report Kd for CC[n+]1c(-c2ccccc2)c2cc(N)ccc2c2ccc(N)cc21 [EtBr, ethidium bromide] please.
result: 1800

---

- Test system: T98G cells
- assaySummary: Quantification of abasic sites
- measurementContext: 80 μM MeLex + 0.25 μM compound, through at least 12 h
measuredEndpoint: level of ARS in combination with MeLex

| compound | measuredEndpoint | result |
| --- | --- | --- |
| CCCCCCCCC/C(=C\C1=C(C)C(=O)C(OC)=C(OC)C1=O)C(=O)O | level of ARS in combination with MeLex | dropped off |
| C/C(=N\Nc1cc(C)nc2cc3c(cc12)OCO3)c1cn(C)n(-c2ccccc2)c1=O | level of ARS in combination with MeLex | 50 sites/10^5 nucleotides |
| CCn1c2ccccc2c2cc(/C=N/Nc3cc(C)nc4cc5c(cc34)OCO5)ccc21 | level of ARS in combination with MeLex | 63 sites/10^5 nucleotides |
| CC[n+]1c(-c2ccccc2)c2cc(N)ccc2c2ccc(N)cc21 [EtBr, ethidium bromide] | level of ARS in combination with MeLex | dropped off |
